Where these numbers come from: patent US10479780B2

# SYSTEM NAME: human Yes1 enzyme (Homo sapiens, UniProt P07947)
# Construct: made in house
# Sequence (P07947 whole entry): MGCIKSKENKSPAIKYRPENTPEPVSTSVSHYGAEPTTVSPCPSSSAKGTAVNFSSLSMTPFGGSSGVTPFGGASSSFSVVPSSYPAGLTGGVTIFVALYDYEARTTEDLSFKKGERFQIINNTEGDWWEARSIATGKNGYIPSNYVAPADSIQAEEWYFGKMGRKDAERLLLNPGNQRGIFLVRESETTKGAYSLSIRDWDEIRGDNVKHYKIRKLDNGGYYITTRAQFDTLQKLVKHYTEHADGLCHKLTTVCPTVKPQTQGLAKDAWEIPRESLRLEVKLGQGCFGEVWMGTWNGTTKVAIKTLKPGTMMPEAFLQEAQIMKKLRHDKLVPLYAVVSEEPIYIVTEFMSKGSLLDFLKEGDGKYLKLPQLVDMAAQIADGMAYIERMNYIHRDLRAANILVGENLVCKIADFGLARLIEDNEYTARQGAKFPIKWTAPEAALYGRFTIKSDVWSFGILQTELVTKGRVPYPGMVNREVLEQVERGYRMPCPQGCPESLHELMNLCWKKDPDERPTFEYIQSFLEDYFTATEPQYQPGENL
# ASSAY DETAILS: Yes1 enzyme inhibitory activity (time-resolved fluorometry, biotinylated peptide phosphorylation)
# Assay type: biochemical
# TEST CONTEXT: read-out: YES_IC50
Provide the reported IC50 of each item.
Give bare numbers, in nM.

compound="Cc1cc(Oc2ccccc2F)ncc1-n1ncc(C(=O)c2cc3cc(SC(F)F)c(N4C(=O)NC(C)(C)C4=O)cc3[nH]2)c1N [Example 5-1-359]" recorded_metric=IC50 result=6
compound="Cc1cc(-n2ncc(C(=O)c3cc4cc(OC5CCN(C6CCCC6)CC5)c(-c5ccccc5Cl)cc4[nH]3)c2N)ccc1Oc1ccccc1F [Example 5-1-285]" recorded_metric=IC50 result=5.2

Moving on to another compound below.
Req: Data request, read-out IC50, for Cc1cc(Oc2ccccc2F)ccc1-n1ncc(C(=O)c2cc3cc(OCC(F)F)c(N4C(=O)NC5(CCNC5)C4=O)cc3[nH]2)c1N (stereo not drawn) [Example 5-1-349]
Resp: 0.51
